Target: Histone deacetylase (Rattus norvegicus) (UniProt Q6P6W3+Q99P99+Q99P96+Q4QQW4+Q99P97+Q5RJZ2+B1WBY8)
Settings: at 0.1 µM
Description: Inhibition of rat liver HDAC at 0.1 uM pre-incubated for 15 mins before Boc-Lys(Ac)-AMC substrate addition and measured after 30 mins by fluorometry
Cut-off 50% on inhibition, inclusive. At or above means 1.0; below means 0.0.

Request: // inclusive: inhibition at least 50%? input: `O=C(CCCCCCC(=O)Nc1ccc2oc(=O)ccc2c1)NO`
Response: 0.0

Request: Quick check: does `CC1(C)CC(=O)Nc2cc(OCCCCCC(=O)NO)ccc21` have inhibition greater than or equal to 50%?
Response: 0.0

Request: Test whether the compound `O=C(CCCCCCCC(=O)Nc1ccc2c(c1)CCC(=O)N2)NO` records inhibition of 50% or higher.
Response: 0.0

Request: For this compound, is measured inhibition 50% or higher? `O=C(CCCOc1ccc2c(c1)CCC(=O)N2)NO`
Response: 0.0

Request: Would you say `CC1(C)CC(=O)Nc2c(F)cc(C(=O)NCCCCCCC(=O)NO)cc21` shows inhibition at minimum 50%?
Response: 1.0

Request: I'd appreciate it if you could say whether `CC1(C)CC(=O)Nc2ccc(C(=O)NC[C@H]3CC[C@@H](/C=C/C(=O)NO)CC3)cc21` has inhibition at least equal to 50%.
Response: 0.0

Request: Exam item: decide whether the reported inhibition for `COc1ccc2cc(C(=O)NCCCCCCC(=O)NO)ccc2n1` is at least 50%.
Response: 1.0

Request: Is it the case that `CC1(C)CC(=O)Nc2cc(C(=O)NCCCCCCC(=O)NO)ccc21` has inhibition reaching or exceeding 50%?
Response: 1.0

Request: Does `COC1=Nc2ccc(NC(=O)CCCCCCC(=O)NO)cc2C(C)(C)C1` have a reported inhibition of at least 50%?
Response: 1.0

Request: For this compound, is measured inhibition 50% or higher? `CC1(C)CC(=O)Nc2ccc(C(=O)NCc3ccc(/C=C/C(=O)NO)cc3)cc21`
Response: 0.0

Request: Hi team, for `CC1(C)CC(=O)Nc2ccc(C(=O)NCc3cccc(/C=C/C(=O)NO)c3)cc21` , is the recorded inhibition at or above 50%?
Response: 0.0

---

Target: Histone deacetylase (Rattus norvegicus) (UniProt Q6P6W3+Q99P99+Q99P96+Q4QQW4+Q99P97+Q5RJZ2+B1WBY8);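 note: HDAC from rat liver, compound preincubated 15 min, then Boc-Lys(Ac)-AMC substrate added, fluorescence read 30 min later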
Conditions: at 0.1 µM
1 means recorded inhibition is 20% or above; -1 means it is below 20%.

Request: Does `O=C(CCCCCCS(=O)(=O)Nc1ccc2c(c1)CCC(=O)N2)NO` have a reported inhibition of at least 20%?
Response: -1

Request: Is the recorded value of inhibition equal to or greater than 20% for this molecule? `CCOC1=Nc2ccc(NC(=O)CCCCCCC(=O)NO)cc2C(C)(C)C1`
Response: 1

Request: Form field: inhibition at least 20%? Entry: `O=C(CCCCCOc1cccc2ccc(=O)[nH]c12)NO`
Response: -1

Request: Given the entry `O=C(CCCCCCC(=O)Nc1ccc2[nH]c(=O)ccc2c1)NO` , answer whether its inhibition meets or surpasses 20%.
Response: 1

Request: Does `O=C(CCCCCCCNC(=O)c1ccc2c(c1)CCC(=O)N2)NO` have a reported inhibition of at least 20%?
Response: 1

Request: # bool: inhibition of `O=C(CCCCCCNC(=O)c1ccc2[nH]c(=O)ccc2c1)NO` >= 20%
Response: 1

Request: Is inhibition at least 20%? Consider `O=C(CCCCCOc1ccc2oc(=O)ccc2c1)NO`
Response: -1

Request: Form field: inhibition at least 20%? Entry: `O=C(CCCCCC(=O)Nc1ccc2c(c1)CCC(=O)N2)NO`
Response: 1

Request: Check if inhibition >= 20% (inclusive). Item: `CC1(C)CC(=O)Nc2ccc(C(=O)NC[C@H]3CC[C@H](CCC(=O)NO)CC3)cc21`
Response: 1

Request: Kindly determine if inhibition recorded for `O=C(CCCCCOc1ccc2c(c1)NC(=O)CC2)NO` is above or exactly 20%.
Response: -1

Request: Is the recorded value of inhibition equal to or greater than 20% for this molecule? `O=C(CCCCCNC(=O)c1ccc2c(c1)CCC(=O)N2)NO`
Response: 1
